protocol.description: Inhibition of beta lactamase CTXM-15 in Enterobacter cloacae assessed as decrease in enzyme activity using nitrocefin as substrate preincubated for 10 mins followed by substrate addition measured for 10 mins by fluorescence plate reader analysis
Measured log10(IC50) accompanies every entry in the list below.
measurement.type: log10(IC50) (log10 of the value in nM)

INSERT INTO assay_data (cpd_smiles, measurement_type, measurement) VALUES
  ('O=C1N2C[C@@H](CC[C@H]2Cl)N1OS(=O)(=O)[O-].[Na+]', 'log10(IC50)', 0.90),
  ('O=C1N2C[C@@H](CC[C@H]2F)N1OS(=O)(=O)[O-].[Na+]', 'log10(IC50)', 0.30),
  ('O=C1N2C[C@@H](CC[C@H]2C(F)F)N1OS(=O)(=O)[O-].[Na+]', 'log10(IC50)', 1.23),
  ('O=C1N2C[C@@H](CC[C@H]2C(F)(F)F)N1OS(=O)(=O)[O-].[Na+]', 'log10(IC50)', 1.00),
  ('O=C1N2C[C@@H](CC[C@H]2C(F)(F)c2nccs2)N1OS(=O)(=O)[O-].[Na+]', 'log10(IC50)', 1.28),
  ('O=C1N2C[C@@H](CC[C@H]2SC(F)(F)F)N1OS(=O)(=O)[O-].[Na+]', 'log10(IC50)', 1.00),
  ('N#C[C@@H]1CC[C@@H]2CN1C(=O)N2OS(=O)(=O)[O-].[Na+]', 'log10(IC50)', 0.60),
  ('O=C1N2C[C@@H](CC[C@H]2CCl)N1OS(=O)(=O)[O-].[Na+]', 'log10(IC50)', 1.92),
  ('CC(F)(F)[C@@H]1CC[C@@H]2CN1C(=O)N2OS(=O)(=O)[O-].[Na+]', 'log10(IC50)', 2.30),
  ('NC(=O)[C@@H]1CC[C@@H]2CN1C(=O)N2OS(=O)(=O)O', 'log10(IC50)', 0.00);

---

protocol.description: Inhibition of beta lactamase AmpC in Enterobacter cloacae assessed as decrease in enzyme activity using nitrocefin as substrate preincubated for 10 mins followed by substrate addition measured for 10 mins by fluorescence plate reader analysis
Binary call on IC50 with cut-off 10 nM: strictly below means y, and equality or higher means n.

INSERT INTO assay_data (cpd_smiles, class_assignment) VALUES
  ('O=C1N2C[C@@H](CC[C@H]2SC(F)(F)F)N1OS(=O)(=O)[O-].[Na+]', 'y'),
  ('N#C[C@@H]1CC[C@@H]2CN1C(=O)N2OS(=O)(=O)[O-].[Na+]', 'y'),
  ('O=C1N2C[C@@H](CC[C@H]2C(Cl)Cl)N1OS(=O)(=O)[O-].[Na+]', 'n'),
  ('NC(=O)[C@@H]1CC[C@@H]2CN1C(=O)N2OS(=O)(=O)O', 'y'),
  ('CC(F)(F)[C@@H]1CC[C@@H]2CN1C(=O)N2OS(=O)(=O)[O-].[Na+]', 'n');

---

Measured IC50 accompanies every entry in the list below.
protocol.description: Inhibition of beta lactamase KPC-2 in Enterobacter cloacae assessed as decrease in enzyme activity using nitrocefin as substrate preincubated for 10 mins followed by substrate addition measured for 10 mins by fluorescence plate reader analysis
measurement.type: IC50 (µM)

INSERT INTO measurements (cpd_smiles, unit_string, value_modifier, measurement) VALUES
  ('O=C1N2CCC[C@H](C2)N1OS(=O)(=O)[O-].[Na+]', 'µM', '>', 3),
  ('CC(F)(F)[C@@H]1CC[C@@H]2CN1C(=O)N2OS(=O)(=O)[O-].[Na+]', 'µM', '=', 0.043),
  ('O=C1N2C[C@@H](CC[C@H]2CCl)N1OS(=O)(=O)[O-].[Na+]', 'µM', '=', 0.028),
  ('O=C1N2C[C@@H](CC[C@H]2S(=O)(=O)C(F)(F)F)N1OS(=O)(=O)[O-].[Na+]', 'µM', '=', 0.015),
  ('N#C[C@@H]1CC[C@@H]2CN1C(=O)N2OS(=O)(=O)[O-].[Na+]', 'µM', '=', 0.008),
  ('O=C1N2C[C@@H](CC[C@H]2SC(F)(F)F)N1OS(=O)(=O)[O-].[Na+]', 'µM', '=', 0.002);

---

protocol.description: Intrinsic clearance in dog hepatocytes assessed per million cells
Type: ADME, cell-based, Canis lupus familiaris, Hepatocyte
experimental.conditions: read-out: CLH
measurement.type: hepatocyte CLint

INSERT INTO measurements (cpd_smiles, measurement) VALUES
  ('O=C1N2C[C@@H](CC[C@H]2F)N1OS(=O)(=O)[O-].[Na+]', '< 3 µL/min/1e6 cells');

---

protocol.description: Plasma protein binding in rat assessed as fraction unbound by LC-MS/MS analysis
Assay type: ADME, cell-free
measurement.type: fraction unbound

INSERT INTO measurements (cpd_smiles, measurement_type, measurement) VALUES
  ('O=C1N2C[C@@H](CC[C@H]2F)N1OS(=O)(=O)[O-].[Na+]', 'fraction unbound', '> 0.93');

---

Measured pIC50 accompanies every entry in the list below.
protocol.description: Inhibition of beta lactamase OXA-48 in Enterobacter cloacae assessed as decrease in enzyme activity using nitrocefin as substrate preincubated for 10 mins followed by substrate addition measured for 10 mins by fluorescence plate reader analysis
pIC50: −log10 of the molar value.
measurement.type: pIC50

INSERT INTO results (cpd_smiles, measurement_type, measurement) VALUES
  ('O=C1N2C[C@@H](CC[C@H]2C(F)(F)F)N1OS(=O)(=O)[O-].[Na+]', 'pIC50', 7.72),
  ('O=C1N2C[C@@H](CC[C@H]2CCl)N1OS(=O)(=O)[O-].[Na+]', 'pIC50', 6.35),
  ('NC(=O)[C@@H]1CC[C@@H]2CN1C(=O)N2OS(=O)(=O)O', 'pIC50', 6.60),
  ('O=C1N2C[C@@H](CC[C@H]2C(Cl)Cl)N1OS(=O)(=O)[O-].[Na+]', 'pIC50', 6.75),
  ('CC(F)(F)[C@@H]1CC[C@@H]2CN1C(=O)N2OS(=O)(=O)[O-].[Na+]', 'pIC50', 6.77),
  ('O=C1N2C[C@@H](CC[C@H]2C(F)F)N1OS(=O)(=O)[O-].[Na+]', 'pIC50', 7.19),
  ('O=C1N2CCC[C@H](C2)N1OS(=O)(=O)[O-].[Na+]', 'pIC50', 5.87),
  ('O=C1N2C[C@@H](CC[C@H]2C(F)(F)c2nccs2)N1OS(=O)(=O)[O-].[Na+]', 'pIC50', 5.96),
  ('O=C1N2C[C@@H](CC[C@H]2CF)N1OS(=O)(=O)[O-].[Na+]', 'pIC50', 6.81),
  ('O=C1N2C[C@@H](CC[C@H]2S(=O)(=O)C(F)(F)F)N1OS(=O)(=O)[O-].[Na+]', 'pIC50', 7.82),
  ('O=C1N2C[C@@H](CC[C@H]2COC(F)(F)F)N1OS(=O)(=O)[O-].[Na+]', 'pIC50', 7.82),
  ('N#C[C@@H]1CC[C@@H]2CN1C(=O)N2OS(=O)(=O)[O-].[Na+]', 'pIC50', 8.70),
  ('O=C1N2C[C@@H](CC[C@H]2Cl)N1OS(=O)(=O)[O-].[Na+]', 'pIC50', 6.57),
  ('O=C1N2C[C@@H](CC[C@H]2SC(F)(F)F)N1OS(=O)(=O)[O-].[Na+]', 'pIC50', 7.00),
  ('O=C1N2C[C@@H](CC[C@H]2F)N1OS(=O)(=O)[O-].[Na+]', 'pIC50', 6.76);

---

Measured pIC50 accompanies every entry in the list below.
protocol.description: Inhibition of beta lactamase TEM-1 in Enterobacter cloacae assessed as decrease in enzyme activity using nitrocefin as substrate preincubated for 10 mins followed by substrate addition measured for 10 mins by fluorescence plate reader analysis
pIC50: −log10 of the molar value.
measurement.type: pIC50

INSERT INTO measurements (cpd_smiles, measurement) VALUES
  ('O=C1N2C[C@@H](CC[C@H]2C(Cl)Cl)N1OS(=O)(=O)[O-].[Na+]', 6.39),
  ('NC(=O)[C@@H]1CC[C@@H]2CN1C(=O)N2OS(=O)(=O)O', 8.30),
  ('O=C1N2C[C@@H](CC[C@H]2C(F)(F)F)N1OS(=O)(=O)[O-].[Na+]', 6.09),
  ('O=C1N2C[C@@H](CC[C@H]2CCl)N1OS(=O)(=O)[O-].[Na+]', 6.87),
  ('O=C1N2C[C@@H](CC[C@H]2S(=O)(=O)C(F)(F)F)N1OS(=O)(=O)[O-].[Na+]', 9.00),
  ('O=C1N2C[C@@H](CC[C@H]2CF)N1OS(=O)(=O)[O-].[Na+]', 6.31);

Provenance of the data: ChEMBL document CHEMBL4699665
